- test context: in ethylene glycol, 305.44 K
experimental readout: solubility (mole fraction)

Value of measured solubility (mole fraction) for the entry O=C(O)c1cc(C(=O)O)cc(C(=O)O)c1 : 0.00826

----------
- test context: in isopropanol, 320.61 K
experimental readout: solubility (mole fraction)
Please state the value as a number alone, without comment.

Value of measured solubility (mole fraction) for the entry O=C(O)c1cc(C(=O)O)cc(C(=O)O)c1 : 0.00949

----------
- test context: in ethanol, 319.06 K
experimental readout: solubility (mole fraction)
Please state the value as a number alone, without comment.

Value of measured solubility (mole fraction) for the entry O=C(O)c1cc(C(=O)O)cc(C(=O)O)c1 : 0.0257

----------
- test context: in isobutanol, 330.58 K
experimental readout: solubility (mole fraction)
Please state the value as a number alone, without comment.

Value of measured solubility (mole fraction) for the entry O=C(O)c1cc(C(=O)O)cc(C(=O)O)c1 : 0.0132

----------
- test context: in ethylene glycol, 321.33 K
experimental readout: solubility (mole fraction)
Please state the value as a number alone, without comment.

Value of measured solubility (mole fraction) for the entry O=C(O)c1cc(C(=O)O)cc(C(=O)O)c1 : 0.0131

----------
- test context: in ethanol, 302.89 K
experimental readout: solubility (mole fraction)
Please state the value as a number alone, without comment.

Value of measured solubility (mole fraction) for the entry O=C(O)c1cc(C(=O)O)cc(C(=O)O)c1 : 0.0207

----------
- test context: in water, 325.11 K
experimental readout: solubility (mole fraction)

Value of measured solubility (mole fraction) for the entry O=C(O)c1cc(C(=O)O)cc(C(=O)O)c1 : 0.00055

----------
- test context: in methanol, 313.97 K
experimental readout: solubility (mole fraction)
Please state the value as a number alone, without comment.

Value of measured solubility (mole fraction) for the entry O=C(O)c1cc(C(=O)O)cc(C(=O)O)c1 : 0.0169

----------
- test context: in water, 315.22 K
experimental readout: solubility (mole fraction)
Please state the value as a number alone, without comment.

Value of measured solubility (mole fraction) for the entry O=C(O)c1cc(C(=O)O)cc(C(=O)O)c1 : 0.00033

----------
- test context: in ethylene glycol, 310.56 K
experimental readout: solubility (mole fraction)
Please state the value as a number alone, without comment.

Value of measured solubility (mole fraction) for the entry O=C(O)c1cc(C(=O)O)cc(C(=O)O)c1 : 0.00951

----------
- test context: in water, 305.47 K
experimental readout: solubility (mole fraction)
Please state the value as a number alone, without comment.

Value of measured solubility (mole fraction) for the entry O=C(O)c1cc(C(=O)O)cc(C(=O)O)c1 : 0.00019

----------
- test context: in isobutanol, 319.87 K
experimental readout: solubility (mole fraction)
Please state the value as a number alone, without comment.

Value of measured solubility (mole fraction) for the entry O=C(O)c1cc(C(=O)O)cc(C(=O)O)c1 : 0.0104

----------
- test context: in ethanol, 312.83 K
experimental readout: solubility (mole fraction)
Please state the value as a number alone, without comment.

Value of measured solubility (mole fraction) for the entry O=C(O)c1cc(C(=O)O)cc(C(=O)O)c1 : 0.0237

----------
- test context: in isobutanol, 310.65 K
experimental readout: solubility (mole fraction)

Value of measured solubility (mole fraction) for the entry O=C(O)c1cc(C(=O)O)cc(C(=O)O)c1 : 0.0086

Entry source: BigSolDB 2.1
